# Tested on: MDR SW/2R160 and 2008/MRP1 cells
# Assay Info: XTT cytotoxicity, result stated jointly for MDR cells
# Type: cell-based
# Assay Setup: no illumination, read-out: IC50 in the absence of illumination
pIC50: −log10 of the molar value.
Measure Name: pIC50

Fill in reported pIC50 for this entry: COc1ccc2c(c1)c(=O)c1c(NCCCN(C)C)ccc3nc(C)n2c31 [C-1375]
5.26 to 5.48

----------
# System: MDR SW/2R160 and 2008/MRP1 cells
# Assay Info: XTT cytotoxicity, result stated jointly for MDR cells
# Type: cell-based
# Assay Setup: illumination, read-out: IC50 with illumination
Measure Name: IC50

Fill in reported IC50 for this entry: COc1ccc2c(c1)c(=O)c1c(NCCCN(C)C)ccc3nc(C)n2c31
90 to 330 nM
